# assayed-system: T1, human CD3 on human T cells (Jurkat) (human, UniProt P07766 23-207; P04234 22-171; P09693 23-182)
# T1 construct: whole, on cells; also called huCD3+; cell surface CD3 on human (Jurkat) T cells
# T1 sequence (P07766 23-207, chain 1 of 3): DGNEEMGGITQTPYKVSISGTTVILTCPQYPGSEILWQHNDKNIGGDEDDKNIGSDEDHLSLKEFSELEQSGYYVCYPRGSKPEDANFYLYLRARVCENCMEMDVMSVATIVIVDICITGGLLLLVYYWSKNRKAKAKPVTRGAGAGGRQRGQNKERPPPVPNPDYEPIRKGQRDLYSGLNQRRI
# T1 sequence (P04234 22-171, chain 2 of 3): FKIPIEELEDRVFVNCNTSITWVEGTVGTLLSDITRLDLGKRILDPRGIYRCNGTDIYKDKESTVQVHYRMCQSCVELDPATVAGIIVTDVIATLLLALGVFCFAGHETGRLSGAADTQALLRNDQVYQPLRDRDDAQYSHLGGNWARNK
# T1 sequence (P09693 23-182, chain 3 of 3): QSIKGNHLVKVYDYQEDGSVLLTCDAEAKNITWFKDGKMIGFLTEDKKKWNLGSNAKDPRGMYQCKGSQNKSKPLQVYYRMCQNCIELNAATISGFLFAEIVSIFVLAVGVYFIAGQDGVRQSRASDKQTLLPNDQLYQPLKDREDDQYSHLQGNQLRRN
# procedure-summary: flow cytometry titration on Jurkat cells
# Method: To express humanized Fabs in mammalian cells, VH genes (VH1 and VH2) and VL genes (VL1~VL10) shown in FIG. 2 were individually cloned into the pFUSE vector under the IL2 signal peptide sequence. […] Binding affinity of humanized candidates for human and cynomolgus T cells were evaluated by flow cytometry. […] After several washes, samples were acquired on a BD LSR II or BD Accuri C6 and analyzed using FlowJo 7.6.2 software.
pIC50: −log10 of the molar value.
Measured pIC50 values are reported for all entries that follow.
value-kind: pIC50

binder="HuL9H2 (Fab, V domains shown, Humanized Fab expressed in Expi293F; also called VL9 + VH2 humanized Fab) VH: EVQLVESGGGLVQPGGSLKLSCAASGFTFNTYAMNWVRQASGKGLEWVARIRSKYNNYATYYADSVKDRFTISRDDSKNTLYLQMNSLKTEDTAVYYCVRHGNFGNSYVSWFAYWGQGTLVTVSS VL: QAVVTQEPSLTVSPGGTVTLTCGSSTGAVTTSNYANWVQQKPGQAFRGLIGGTNKRAPGVPDRFSGSLLGGKAALTISGAQPEDEAEYYCALWYSNLWVFGGGTKLTVL" value_kind=pIC50 readout_value=6.93
binder="HuL3H2 (Fab, V domains shown, Humanized Fab expressed in Expi293F; also called VL3 + VH2 humanized Fab) VH: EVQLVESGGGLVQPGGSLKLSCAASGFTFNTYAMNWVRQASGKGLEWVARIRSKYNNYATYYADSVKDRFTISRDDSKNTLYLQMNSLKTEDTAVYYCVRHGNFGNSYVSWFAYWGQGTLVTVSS VL: QAVVTQEPSLTVSPGGTVTLTCGSSTGAVTTSNYANWVQQKPGQAFRGLIGGTNKRAPWTPARFSGSLLGGKAALTISGAQPEDEAEYYCALWYSNLWVFGGGTKLTVL" value_kind=pIC50 readout_value=7.75
binder="HuL7H2 (Fab, V domains shown, Humanized Fab expressed in Expi293F; also called VL7 + VH2 humanized Fab) VH: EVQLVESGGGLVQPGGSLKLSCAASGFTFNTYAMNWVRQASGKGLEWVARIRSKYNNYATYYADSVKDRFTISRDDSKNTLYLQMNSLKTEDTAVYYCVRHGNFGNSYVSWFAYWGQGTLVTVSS VL: QAVVTQEPSLTVSPGGTVTLTCRSSTGAVTTSNYANWVQQKPGQAFRGLIGGTNKRAPGTPARFSGSLLGDKAALTISGAQPEDEAEYYCALWYSNLWVFGGGTKLTVL" value_kind=pIC50 readout_value=7.15
